Cited source: the supplement of paper PMC10567573

B1: ESRRA (parent)
chain: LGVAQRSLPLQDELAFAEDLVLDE

Variants of: B1
procedure.summary: protein stability index of a GFP-peptide fusion (GPS, HEK-293T) (PSI 1-6); higher = more stable;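 also: lentivirally expressed fusions sorted by FACS into six bins by GFP to DsRed ratio, PSI derived from sequencing read proportions per bin multiplied by bin number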
particulars: c terminus: a fixed tail appended
Recorded protein stability index for the following variants

mutant.designation	protein stability index
E13F	3.12
A4F	2.23
D23V	1.88
V21Y	4.61
F16I	2.34
V3L	2.61
S7A	3.38
A4V	2.39
G2S	2.63
P9D	3.17
V21I	1.56
D19G	2.05
E18M	3.84
L8M	3.25
Q11C	3.94
Q5S	4.29
S7Y	2.37
D19S	2.21
L10S	5.19
L22V	4.14
V21P	5.27
A4D	2.84
